The origin of these recorded values is patent US7803930B2.

- Test system: rabbit apolipoprotein B mRNA
- EXPERIMENT NOTES: Inhibition of rabbit apolipoprotein B mRNA levels in primary rabbit hepatocytes, real-time PCR
- Format: cell-based
- Set-up: concentration or dose not given beside the values
In the oligonucleotide strings, read from the 5' end, every base follows the letter of its sugar. An asterisk marks phosphorothioate; unmarked linkages are phosphodiester. Other units and linkages are bracketed, terminal groups are in braces. A string of capitals states the bases alone. e = 2'-O-(2-methoxyethyl) (MOE); [5mC] = 5-methylcytosine; d = 2'-deoxy (DNA)
TEST READOUT: % INHIB of rabbit apolipoprotein B mRNA levels (%)
# output: bare number, implied unit %

Query: Find % INHIB of rabbit apolipoprotein B mRNA levels (rabbit apolipoprotein B mRNA) for the entry 233169 (antisense eG*e[5mC]*eT*e[5mC]*eA*dT*dT*d[5mC]*dT*d[5mC]*d[5mC]*dA*dG*d[5mC]*dA*eT*e[5mC]*eA*eG*eG) [compound 233169]
Result: 14

Query: Same read-out for 233151 (antisense eT*eA*eA*eT*e[5mC]*dA*dT*dT*dA*dA*d[5mC]*dT*dT*dG*d[5mC]*eT*eG*eT*eG*eG) [compound 233151] ?
Result: 20

Query: Same read-out for 233184 (antisense eT*eA*eA*eA*eG*dT*d[5mC]*d[5mC]*dA*dG*d[5mC]*dA*dT*dT*dG*eG*eT*eA*eT*eT) [compound 233184] ?
Result: 69

Query: Same read-out for 233162 (antisense eG*eT*eT*eG*e[5mC]*d[5mC]*dT*dT*dG*dT*dG*dA*dG*d[5mC]*dA*eG*e[5mC]*eA*eG*eT) [compound 233162] ?
Result: 0

Query: Same read-out for 233177 (antisense eG*eT*eA*eG*e[5mC]*dT*dT*dT*d[5mC]*d[5mC]*d[5mC]*dA*dT*d[5mC]*dT*eA*eG*eG*e[5mC]*eT) [compound 233177] ?
Result: 0

###

- System: human apolipoprotein B mRNA
- EXPERIMENT NOTES: Inhibition of human apolipoprotein B mRNA levels in HepG2 cells, quantitative real-time PCR
- Type: cell-based
- CONDITIONS: Table 13 gene walk; HepG2 cells, 150 nM; averages from two experiments
In the oligonucleotide strings, read from the 5' end, every base follows the letter of its sugar. An asterisk marks phosphorothioate; unmarked linkages are phosphodiester. Other units and linkages are bracketed, terminal groups are in braces. A string of capitals states the bases alone. e = 2'-O-(2-methoxyethyl) (MOE); [5mC] = 5-methylcytosine; d = 2'-deoxy (DNA)
TEST READOUT: % INHIB 150 nm (%)
# output: bare number, implied unit %

Query: Consider the substance shown here: 308624 (eT*e[5mC]*eG*e[5mC]*eG*d[5mC]*d[5mC]*dT*dT*d[5mC]*dT*dG*d[5mC]*dT*dT*eG*eA*eG*eT*eT; antisense) [compound 308624] What is its recorded % INHIB 150 nm?
Result: 89

Query: Same read-out for 308625 (e[5mC]*eT*eT*e[5mC]*eG*d[5mC]*dG*d[5mC]*d[5mC]*dT*dT*d[5mC]*dT*dG*d[5mC]*eT*eT*eG*eA*eG; antisense) [compound 308625] ?
Result: 83

Query: Same read-out for 308629 (eA*eG*e[5mC]*e[5mC]*eT*d[5mC]*dA*dG*dT*d[5mC]*dT*dG*d[5mC]*dT*dT*e[5mC]*eG*e[5mC]*eG*e[5mC]; antisense) [compound 308629] ?
Result: 95
